# System: MCF7 breast
# ASSAY METHOD TEXT: NCI-60 one-dose screen, 48 h (100 = growth as untreated, 0 = no growth, -100 = all killed)
# CONDITION DESCRIPTION: 10 µM unless noted
The panel holds about 83,000 compounds, 20% with a hit somewhere; the sample as a whole holds those more often.
Tag: Met if measured growth is not below 10%, Not met if it is.

{"ENTRY SMILES": "N=C(N)c1ccc(-c2ccc(-c3ccc(Cl)cc3Cl)o2)nc1", "CATEGORY": "Not met"}
{"ENTRY SMILES": "N#C/C(=C\\c1ccc2c(c1)OCO2)n1nnc2ccccc21", "CATEGORY": "Met"}
{"ENTRY SMILES": "O=C(Nc1ccccn1)[C@H](O)[C@@H](O)C(=O)N1CCOCC1", "CATEGORY": "Met"}

**Query** Does the compound O=[N+]([O-])c1cccc(/C=C/c2ccccn2)c1 have recorded growth that is 10% or more?
**Result** Not met

###

# System: HCC-2998 colon
# ASSAY METHOD TEXT: NCI-60 one-dose screen, 48 h
# CONDITION DESCRIPTION: 10 µM unless noted
# Experimental: Growth inhibition of the HCC-2998 human tumor cell line is measured as a screen for anti-cancer activity. Cells are grown in 96 well plates and exposed to the test compound for 48 hours. Compounds are tested at a single concentration, which is 10^-5 M for most compounds. The reported endpoint is percent growth (GI% or GIPRCNT), where numbers from 0 - 100% represent growth inhibition, and numbers from -100% - 0 represent cell death. For example, a value of 40 represents 60% growth inhibition. […]
Compounds without any hit were thinned out: in the full panel of roughly 83,000, 20% have a hit. Activity calls are given as the source filed them. Rule for the calls: active = growth percent below 10; inactive = the rest.
Mark one answer only. Choices: yes (active), no (inactive)

# count of solved cases: 6
{"COMPOUND": "COc1ccc(-c2cc(-c3cc(OC)ccc3OC)[nH]c(=O)c2C#N)cc1", "CATEGORY": "no"}
{"COMPOUND": "COc1ccc(Oc2nc(Nc3ccc(N4CCOCC4)nc3)ncc2NC(=O)c2cc(OC)cc(OC)c2)cc1", "CATEGORY": "no"}
{"COMPOUND": "[2H]c1nc(Nc2ncc(F)c(-c3cc(F)c4nc(C)n(C(C)C)c4c3)n2)c([2H])c([2H])c1CN1CCN(C([2H])([2H])C([2H])([2H])[2H])CC1", "CATEGORY": "no"}
{"COMPOUND": "C/C(=N\\NC(N)=S)c1nc2ccc(Cl)cc2[nH]1", "CATEGORY": "no"}
{"COMPOUND": "O=C(/C=C/C12c3ccccc3C(c3ccccc31)C1C(=O)NC(=O)C12)c1ccc(Cl)cc1 (configuration not stated)", "CATEGORY": "yes"}
{"COMPOUND": "Cn1cc(-c2ccc3ncc(-c4ccc(CC(=O)Nc5cc(C(C)(C)C)nn5C)cc4)cc3c2)cn1", "CATEGORY": "no"}

Consider the additional compound presented here.
**Query** Returns: the outcome recorded for Cn1c(NCCc2ccc(O)c(O)c2)nc2c1c(=O)n(Cc1ccc(Cl)cc1)c(=O)n2C in this assay.
**Result** no

###

# Test system: IGROV1 ovarian
# ASSAY METHOD TEXT: NCI-60 one-dose screen, 48 h (100 = growth as untreated, 0 = no growth, -100 = all killed)
# CONDITION DESCRIPTION: 10 µM unless noted
About 83,000 compounds went through this panel and 20% of them were active in at least one assay; those are over-represented in the sample as a whole.
The following compounds are shown together with reported growth values.
Please give a number only; it is taken to be in %.

{"COMPOUND": "COc1cccc(-c2nc3sccn3c2-c2ccnc(NCCNS(=O)(=O)c3c(Cl)cccc3Cl)c2)c1", "growth (%)": 57.2}
{"COMPOUND": "COc1ccccc1C(=O)NC(=S)Nc1ccc(-c2nc3ccccc3[nH]2)cc1", "growth (%)": 69}

**Query** Given Cc1c(C)c2c(c(C)c1NC(=O)/C=C\C(=O)O)CCC(C)(CCCC(C)CCCC(C)CCCC(C)C)O2 (centres undefined) , respond with its growth.
**Result** 56.8

**Query** Complete the entry with growth for C[C@@H]1C(=O)N(C[C@H](Cc2ccccc2)N(Cc2ccccc2)Cc2ccccc2)[C@]1(Cc1ccccc1)C(=O)OC(C)(C)C
**Result** 77.5
